Target: KRasG12C (M1-K169, biotinylated on the N-terminus) (Homo sapiens (Human), UniProt P01116, G12C)
Experiment: Covalent competition assay: scintillation proximity assay (SPA) quantifying covalent modification of KRASG12C
Conditions: competition with radiolabeled covalent probe (Compound B/Compound A), 2 hours incubation, 10 nM KRasG12C
Property Measured: IC50 (nM)
Numbers only; they are read as nM.

**Q:** Report IC50 for C=CC(=O)N1CC2(CC(n3nc(N4CCC(CN5C[C@@H]6OCCO[C@@H]6C5)CC4(C)C)c(-c4c(Cl)c(Cl)cc5[nH]ncc45)c3C)C2)C1 (single isomer, unassigned) [Example 232b] please.
**A:** 137

**Q:** Report IC50 for C=CC(=O)N1CC2(CC(n3nc(N4CCN(C5COC5)C[C@]4(C)CC)c(-c4c(Cl)c(C)cc5[nH]ncc45)c3C)C2)C1 (single isomer, unassigned) [Example 133b] please.
**A:** 5

**Q:** Report IC50 for C=CC(=O)N1CC2(CC(n3nc(N4CC=C(CN5CCOCC5)CC4(C)C)c(-c4c(Cl)c(Cl)cc5[nH]ncc45)c3C)C2)C1 (single isomer, unassigned) [Example 220b] please.
**A:** 36

**Q:** Report IC50 for C=CC(=O)N1CC2(CC(n3nc(N4CCN(c5ccnnc5)C[C@]4(C)CC)c(-c4c(Cl)c(C)cc5[nH]ncc45)c3C)C2)C1 (single isomer, unassigned) [Example 192b] please.
**A:** 8

**Q:** Report IC50 for C=CC(=O)N1CC2(CC(n3nc(N4CCN(C5CCOCC5)CC4(C)C)c(-c4c(Cl)c(Cl)cc5[nH]ncc45)c3C)C2)C1 (single isomer, unassigned) [Example 140b] please.
**A:** 18

**Q:** Report IC50 for C=CC(=O)N1CC2(CC(n3nc(N4CC[C@@H](CN5CCN6C[C@@H](O)C[C@@H]6C5)CC4(C)C)c(-c4c(Cl)c(Cl)cc5[nH]ncc45)c3C)C2)C1 (single isomer, unassigned) [Example 287a] please.
**A:** 307

**Q:** Report IC50 for C=CC(=O)N1CC2(CC(n3nc(N4CCC(C)(O)CC4(C)C)c(-c4c(Cl)c(C)cc5[nH]ncc45)c3C)C2)C1 (single isomer, unassigned) [Example 28b] please.
**A:** 1300

**Q:** Report IC50 for C=CC(=O)N1CC2(CC(n3nc(N4CCN(C5COC5)CC45CCC5)c(-c4c(Cl)c(Cl)cc5[nH]ncc45)c3C)C2)C1 (single isomer, unassigned) [Example 72b] please.
**A:** 7

**Q:** Report IC50 for C=CC(=O)N1CC2(CC(n3nc(N4CC[C@@H](CN5CC6OCCN(C)C6C5)CC4(C)C)c(-c4c(Cl)c(Cl)cc5[nH]ncc45)c3C)C2)C1 (single isomer, unassigned) [Example 259a] please.
**A:** 779

**Q:** Report IC50 for C=CC(=O)N1CC2(CC(n3nc(N4CC[C@@H](CN5C[C@@H]6CN(C(C)=O)C[C@@H]6C5)CC4(C)C)c(-c4c(Cl)c(Cl)cc5[nH]ncc45)c3C)C2)C1 (single isomer, unassigned) [Example 295a] please.
**A:** 2000

**Q:** Report IC50 for C=CC(=O)N1CC2(CC(n3nc(N4CC[C@@H](CN5CC6COCC(C5)O6)CC4(C)C)c(-c4c(Cl)c(Cl)cc5[nH]ncc45)c3C)C2)C1 (single isomer, unassigned) [Example 308b] please.
**A:** 10

**Q:** Report IC50 for C=CC(=O)N1CC2(CC(n3nc(N4CC[C@H](N(C)C(C)=O)CC4(C)C)c(-c4c(Cl)c(C)cc5[nH]ncc45)c3C)C2)C1 (single isomer, unassigned) [Example 70a] please.
**A:** 287

**Q:** Report IC50 for C=CC(=O)N1CC2(CC(n3nc(N4CC[C@@H](CN5CC6(CCCO6)C5)CC4(C)C)c(-c4c(Cl)c(Cl)cc5[nH]ncc45)c3C)C2)C1 (single isomer, unassigned) [Example 234b] please.
**A:** 9

**Q:** Report IC50 for C=CC(=O)N1CC2(CC(n3nc(N4CCN(C[C@H]5CCCO5)CC45CCC5)c(-c4c(Cl)c(C)cc5[nH]ncc45)c3C)C2)C1 (single isomer, unassigned) [Example 153b] please.
**A:** 19

Values were extracted from patent US20240317721A1.
